Measured values drawn from patent US10676465B2 for this set.

target_or_test_system: human GLP-1R (Homo sapiens, UniProt P43220, G168S)
Sequence (P43220 24-463 G168S limits assumed): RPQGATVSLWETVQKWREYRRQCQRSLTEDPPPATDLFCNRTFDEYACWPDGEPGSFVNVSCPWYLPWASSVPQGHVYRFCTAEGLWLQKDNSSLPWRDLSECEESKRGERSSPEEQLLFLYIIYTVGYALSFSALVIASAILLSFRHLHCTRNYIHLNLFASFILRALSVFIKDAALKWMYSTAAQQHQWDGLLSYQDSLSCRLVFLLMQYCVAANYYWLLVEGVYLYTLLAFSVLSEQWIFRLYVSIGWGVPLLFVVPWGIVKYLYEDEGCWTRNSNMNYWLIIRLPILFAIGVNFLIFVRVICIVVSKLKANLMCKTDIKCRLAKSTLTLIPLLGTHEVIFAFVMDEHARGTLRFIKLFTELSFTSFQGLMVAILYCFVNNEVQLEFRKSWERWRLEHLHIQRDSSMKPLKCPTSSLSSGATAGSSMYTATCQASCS
protocol_text: CHO GLP-1R Clone H6 - Assay 1 (HTRF cAMP agonist assay)
Format: cell-based
experimental_parameters: CHO GLP-1R Clone H6; arithmetic mean, relative to saturating GLP-1 (1 μM)
measure_name: Assay 1 Emax (%)

compound	value
CC1(c2ccc(C#N)cc2F)Oc2cccc(C3CCN(Cc4nc5ccc(C(=O)O)cc5n4Cc4ncco4)CC3)c2O1.N (stereo not drawn)	99
CC1(c2ccc(Cl)cc2F)Oc2c(F)ccc(C3CCN(Cc4nc5ccc(C(=O)O)cc5n4C[C@@H]4CCO4)CC3)c2O1 (single isomer, unassigned)	86
COCCn1c(CN2CCN(c3cccc4c3OC(c3ccc(Cl)cc3F)O4)CC2)nc2ccc(C(=O)O)cc21 (single isomer, unassigned)	81
